The reader will find reported EC50 values listed item by item below.
- TARGET OR SYSTEM: Recombinant human soluble guanylate cyclase (sGC), alpha 1 / beta 1 subunits, heme-free (Homo sapiens, UniProt Q02108+Q02153)
- Construct: histidine tag (C); made in house; host or cells: Sf9 insect cells (baculovirus coinfection)
- Sequence (Q02108 whole entry partner): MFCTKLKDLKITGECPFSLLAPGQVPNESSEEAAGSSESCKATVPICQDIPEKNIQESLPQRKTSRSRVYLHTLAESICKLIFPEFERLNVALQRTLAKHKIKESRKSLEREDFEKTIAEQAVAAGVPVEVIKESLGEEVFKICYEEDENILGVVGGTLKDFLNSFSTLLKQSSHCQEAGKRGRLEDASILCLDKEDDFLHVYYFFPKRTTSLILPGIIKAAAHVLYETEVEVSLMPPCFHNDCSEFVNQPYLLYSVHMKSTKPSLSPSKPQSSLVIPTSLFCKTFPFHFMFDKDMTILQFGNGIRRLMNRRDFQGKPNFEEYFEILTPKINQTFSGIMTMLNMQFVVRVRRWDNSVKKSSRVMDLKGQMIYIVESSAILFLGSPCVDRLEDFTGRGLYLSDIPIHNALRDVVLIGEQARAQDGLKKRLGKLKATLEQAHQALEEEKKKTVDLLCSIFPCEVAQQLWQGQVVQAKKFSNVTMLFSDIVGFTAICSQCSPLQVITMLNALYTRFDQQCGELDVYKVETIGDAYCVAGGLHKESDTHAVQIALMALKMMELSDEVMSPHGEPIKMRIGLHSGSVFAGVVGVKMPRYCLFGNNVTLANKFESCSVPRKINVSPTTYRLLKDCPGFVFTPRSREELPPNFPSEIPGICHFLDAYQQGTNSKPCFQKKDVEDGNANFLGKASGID
- Sequence (Q02153 whole entry): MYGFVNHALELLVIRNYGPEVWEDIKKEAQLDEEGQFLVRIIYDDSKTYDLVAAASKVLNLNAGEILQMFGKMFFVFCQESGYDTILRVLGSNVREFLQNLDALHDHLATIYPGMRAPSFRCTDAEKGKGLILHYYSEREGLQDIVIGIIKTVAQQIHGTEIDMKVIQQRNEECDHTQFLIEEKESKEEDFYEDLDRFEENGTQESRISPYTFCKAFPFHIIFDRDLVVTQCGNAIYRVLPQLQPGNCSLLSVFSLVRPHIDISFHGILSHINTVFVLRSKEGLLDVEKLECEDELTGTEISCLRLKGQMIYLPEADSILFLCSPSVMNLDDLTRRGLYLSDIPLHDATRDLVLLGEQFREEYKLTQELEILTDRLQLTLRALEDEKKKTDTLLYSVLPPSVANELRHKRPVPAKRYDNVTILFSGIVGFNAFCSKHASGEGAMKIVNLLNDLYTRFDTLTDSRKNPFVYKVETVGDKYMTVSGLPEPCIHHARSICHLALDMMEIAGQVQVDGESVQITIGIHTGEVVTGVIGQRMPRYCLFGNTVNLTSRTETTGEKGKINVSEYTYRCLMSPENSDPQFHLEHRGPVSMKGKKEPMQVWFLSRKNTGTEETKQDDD
- ASSAY INFO: Molecular assay: cGMP formation by heme-free recombinant sGC (CisBio cGMP detection kit)
- Assay type: biochemical
- EXPERIMENTAL SETUP: 300 pM heme-free sGC, 37° C., 60 min, cGMP readout; read-out: EC50 nM, Activity of Compounds in Molecular Assay
MEASURED PARAMETER: EC50 (nM)

In [3]: df
Out[3]:
                                   molecule  reading
0  Cc1ccc(OCc2ccc(CN3CCOCC3)cc2C)c(-c2csc(N3C4CCC3CC(C(=O)O)C4)n2)c1 (stereo not shown) [Compound 174]      320
1  Cc1cc(CN2CCS(=O)(=O)CC2)ccc1COc1ccc(Cl)cc1-c1csc(N2CCC(C(=O)O)CC2)n1 [Compound 133]       45
2  Cc1ccc(OCc2ccc(CN3CCOCC3)cc2C)c(-c2csc(N3CCC4(C(=O)O)CC4C3)n2)c1 (stereo not shown) [Compound 218]      170
3  Cc1cc(CN2CCS(=O)(=O)CC2)ccc1COc1ccc(F)cc1-c1csc(N2C3CCC2CC(C(=O)O)C3)n1 (stereo not shown) [Compound 139]      380
